Assay Overview: CPHEA_Stoker_NIS_Cytotoxicity: Cytotoxicity Assessment for CPHEA's Radioactive Iodide Uptake (RAIU) Assay for Sodium/Iodide Symporter (NIS) Inhibition, Stoker and Laws Labs (AID 2283897)
Active and inactive are the calls of the source. Rule for the calls: active = hit-call score of the fitted dose curve at least 0.9, where 1 is the maximum; inconclusive = response in the unintended direction; inactive = score below 0.9.
Can you answer with just one of these options? active, inactive

See these solved cases before continuing.
Nc1c(Cl)c(Cl)nc(C(=O)O)c1Cl ... inactive
CC1(C)C(C(=O)OC(C#N)c2cccc(Oc3ccccc3)c2)C1(C)C (configuration not stated) ... inactive
CCN(CC)C(=O)C(C)Oc1cccc2ccccc12 (configuration not stated) ... inactive

Identify the outcome logged in this assay for the compound shown: "CO/N=C(/C1=NOCCO1)c1ccccc1Oc1ncnc(Oc2ccccc2Cl)c1F" active

Dear colleague, could you share the recorded outcome for "Clc1cccc(C(Cl)(Cl)Cl)n1" when you have a moment? inactive

Just curious, what result did CC(C)=CC1C(C(=O)OCc2coc(Cc3ccccc3)c2)C1(C)C (configuration not stated) get here? inactive

Any idea what this test logged for "CCN(CC)c1nc(C)cc(OP(=S)(OC)OC)n1" ? inactive

Given CCCCC(O)(Cn1cncn1)c1ccc(Cl)cc1Cl (configuration not stated) , state the outcome it received in this test. inactive

Short answer needed: outcome of this test for "CC(C)N1C(=O)N(c2ccccc2)CSC1=NC(C)(C)C" ? active

In this assay, the call recorded for O=C1C2CC=CCC2C(=O)N1SC(Cl)(Cl)Cl (configuration not stated) was what? inactive

Recorded call for "N#Cc1c[nH]cc1-c1cccc2c1OC(F)(F)O2" ? inactive

Outcome? CCOC(=O)C(C)OC(=O)c1cc(Oc2ccc(C(F)(F)F)cc2Cl)ccc1[N+](=O)[O-] (configuration not stated) inactive

Recorded call for "COP(=S)(OC)Oc1ccc([N+](=O)[O-])c(C)c1" ? inactive

So what was the verdict on CC1(C)C(C=C(Cl)Cl)C1C(=O)OC(C#N)c1cccc(Oc2ccccc2)c1 (configuration not stated) in this test? inactive

Each compound tested received a call. Report the one for "C=CCOC(=O)C(C)(C)OC(=O)c1cc(-n2c(=O)cc(C(F)(F)F)n(C)c2=O)ccc1Cl" . inactive

Write down the call the test reported for this compound. Item: "COC(=O)c1c(C(F)F)nc(C(F)(F)F)c(C2=NCCS2)c1CC(C)C" inactive

Lab log entry: "CCCCOCN(C(=O)CCl)c1c(CC)cccc1CC" — outcome as called in the assay? inactive

* * *

Assay Overview: ATG_GRE_CIS: Attagene CIS-FACTORIAL HepG2 Assay for human Glucocorticoid Response Elements (GRE) (AID 2282947)
Test Context: HepG2 GRE cis-reporter, Attagene multiplex mRNA; actives raise or lower the signal
Calls of active or inactive are those of the source. The calls were made as follows: active = hit-call score of the fitted dose curve at least 0.9, where 1 is the maximum; inactive = score below 0.9.
Readout: AC50

Here are 10 molecules together with their reported answers.
COC(=O)NC(=S)Nc1ccccc1NC(=S)NC(=O)OC ... inactive
CSC(=O)c1c(C(F)F)nc(C(F)(F)F)c(C(=O)SC)c1CC(C)C ... inactive
CCCCC(C#N)(Cn1cncn1)c1ccc(Cl)cc1 (stereo unspecified) ... inactive
Cc1cnc(C2=NC(C)(C(C)C)C(=O)N2)c(C(=O)O)c1 (stereo unspecified) ... inactive
C=CCOC(=O)C(C)(C)OC(=O)c1cc(-n2c(=O)cc(C(F)(F)F)n(C)c2=O)ccc1Cl ... inactive
Nc1c(Cl)c(Cl)nc(C(=O)O)c1Cl ... inactive
CC(C)(C)C(=O)C(Oc1ccc(Cl)cc1)n1cncn1 (stereo unspecified) ... inactive
Cc1nc(N(C)C)nc(OC(=O)N(C)C)c1C ... inactive
CS(=O)(=O)c1cc(C(F)(F)F)ccc1C(=O)c1cnoc1C1CC1 ... inactive
CC(C)=CC1C(C(=O)OCc2coc(Cc3ccccc3)c2)C1(C)C (stereo unspecified) ... inactive

The reported AC50 of the molecule "COc1ccc(-c2ccccc2)cc1NNC(=O)OC(C)C" was 13.2 µM (active)

# AC50 (molecule: COCc1cnc(C2=NC(C)(C(C)C)C(=O)N2)c(C(=O)O)c1 (stereo unspecified) ) is inactive

Sure, the documented AC50 for "O=C(O)c1c(Cl)ccc2cc(Cl)cnc12" is inactive

The recorded AC50 for "COc1cc(OC)nc(NC(=O)NS(=O)(=O)c2ncccc2OCC(F)(F)F)n1" is inactive

Data point: "N#Cc1c[nH]cc1-c1cccc2c1OC(F)(F)O2" ; AC50 = inactive

AC50 measured on "N#CN=C1SCCN1Cc1ccc(Cl)nc1" = inactive

* * *

Test Target: Retinoic acid receptor RXR-alpha (Homo sapiens) (UniProt P19793)
Sequence (P19793 whole entry, looked up): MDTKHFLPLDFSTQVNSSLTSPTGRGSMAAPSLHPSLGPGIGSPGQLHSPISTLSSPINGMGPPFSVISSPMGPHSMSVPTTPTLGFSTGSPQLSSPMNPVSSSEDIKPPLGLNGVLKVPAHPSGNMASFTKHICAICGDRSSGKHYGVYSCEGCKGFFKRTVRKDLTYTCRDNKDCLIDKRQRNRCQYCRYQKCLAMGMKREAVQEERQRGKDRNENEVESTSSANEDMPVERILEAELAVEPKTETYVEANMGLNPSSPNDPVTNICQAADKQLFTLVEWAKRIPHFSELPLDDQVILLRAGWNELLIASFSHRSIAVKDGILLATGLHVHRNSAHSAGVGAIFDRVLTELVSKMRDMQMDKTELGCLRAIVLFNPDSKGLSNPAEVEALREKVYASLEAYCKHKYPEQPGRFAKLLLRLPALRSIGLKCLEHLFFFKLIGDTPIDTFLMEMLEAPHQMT
Assay Overview: OT_NURR1_NURR1RXRa_0480: Odyssey Thera (OT) 8-hour HEK293T Protein Complementation Assay for Nurr1/retinoid X receptor (RXR) (AID 2283385)
Procedure: OT_NURR1_NURR1RXRa_0480 is a cell-based assay that uses HEK293T, a human kidney cell line, with measurements taken at 8 hours after chemical dosing in a 384-well plate.OT_NURR1_NURR1RXRa_0480 is one of one assay component(s) measured or calculated from the OT_NURR1_NURR1RXRa_0480 assay. […] This assay endpoint, OT_NURR1_NURR1RXRa_0480, was analyzed in the positive analysis fitting direction relative to DMSO as the negative control and baseline of activity. […]
Inconclusive results are not listed. Active and inactive are the calls of the source. Rule for the calls: active = hit-call score of the fitted dose curve at least 0.9, where 1 is the maximum; inconclusive = response in the unintended direction; inactive = score below 0.9.
Reply using exactly one outcome from TRUE for active, FALSE for inactive

Would you please look over these solved cases?
CC(C)=CC1C(C(=O)OCc2coc(Cc3ccccc3)c2)C1(C)C (stereo unspecified) ... FALSE
CC(C)(C)C(=O)C(Oc1ccc(Cl)cc1)n1cncn1 (stereo unspecified) ... FALSE
Cc1c(COC(=O)[C@@H]2[C@H](/C=C(\Cl)C(F)(F)F)C2(C)C)cccc1-c1ccccc1 ... FALSE
COCc1cnc(C2=NC(C)(C(C)C)C(=O)N2)c(C(=O)O)c1 (stereo unspecified) ... FALSE
CC1(C)CON(Cc2ccccc2Cl)C1=O ... FALSE

Write down the call the test reported for this compound. Item: "COP(=S)(OC)Oc1ccc([N+](=O)[O-])c(C)c1" FALSE

What did the test return for "COC(=O)c1c(C(F)F)nc(C(F)(F)F)c(C2=NCCS2)c1CC(C)C" ? FALSE

Called result for "Cc1ccc(N=CN(C)C=Nc2ccc(C)cc2C)c(C)c1" TRUE

Each compound tested received a call. Report the one for CC1(C)C(C=C(Cl)Cl)C1C(=O)OC(C#N)c1cccc(Oc2ccccc2)c1 (stereo unspecified) . FALSE

Lab log entry: "CSC(=O)c1c(C(F)F)nc(C(F)(F)F)c(C(=O)SC)c1CC(C)C" — outcome as called in the assay? FALSE

Could you check what this test reported for "CS(=O)(=O)c1cc(C(F)(F)F)ccc1C(=O)c1cnoc1C1CC1" ? FALSE

* * *

Test Target: rat CYP2C12, Cyp2c12 (gene 25011) (UniProt P11510)
Sequence (P11510 whole entry, looked up): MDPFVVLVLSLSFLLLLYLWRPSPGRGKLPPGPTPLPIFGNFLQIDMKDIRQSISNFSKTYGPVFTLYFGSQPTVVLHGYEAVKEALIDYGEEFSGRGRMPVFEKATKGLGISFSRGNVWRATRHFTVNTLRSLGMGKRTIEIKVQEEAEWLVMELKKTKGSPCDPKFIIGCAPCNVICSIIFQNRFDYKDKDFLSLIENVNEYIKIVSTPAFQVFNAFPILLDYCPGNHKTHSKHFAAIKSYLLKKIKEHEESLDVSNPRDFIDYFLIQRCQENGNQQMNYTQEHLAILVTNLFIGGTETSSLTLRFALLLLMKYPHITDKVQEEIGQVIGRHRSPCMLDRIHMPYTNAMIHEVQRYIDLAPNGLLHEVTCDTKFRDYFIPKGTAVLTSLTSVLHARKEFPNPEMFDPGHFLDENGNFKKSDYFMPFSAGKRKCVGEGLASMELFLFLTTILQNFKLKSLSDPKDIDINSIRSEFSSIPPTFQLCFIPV
Assay Overview: NVS_ADME_rCYP2C12: NovaScreen (NVS) CYP450-related Enzyme Activity (ADME) Assay for rat CYP2C12 (AID 2283119)
Results filed as inconclusive are left out. Active and inactive are the calls of the source. The calls were made as follows: active = hit-call score of the fitted dose curve at least 0.9, where 1 is the maximum; inconclusive = response in the unintended direction; inactive = score below 0.9.
Respond using exactly one of the listed classes: Y (active), N (inactive)

Would you please look over these solved cases?
CCCCC(O)(Cn1cncn1)c1ccc(Cl)cc1Cl (configuration not stated) ... Y
O=C1C2CC=CCC2C(=O)N1SC(Cl)(Cl)Cl (configuration not stated) ... N
CCCCC(C#N)(Cn1cncn1)c1ccc(Cl)cc1 (configuration not stated) ... Y
C=CCOC(=O)C(C)(C)OC(=O)c1cc(-n2c(=O)cc(C(F)(F)F)n(C)c2=O)ccc1Cl ... N
COC(=O)N(C(=O)N1CO[C@@]2(C(=O)OC)Cc3cc(Cl)ccc3C2=N1)c1ccc(OC(F)(F)F)cc1 ... Y

What classification did "COP(=S)(OC)Oc1ccc([N+](=O)[O-])c(C)c1" end up with in this test? Y

Identify the outcome logged in this assay for the molecule shown: CCNP(=S)(OC)O/C(C)=C/C(=O)OC(C)C (configuration not stated) Y

* * *

Test Target: Muscarinic acetylcholine receptor M3 (Homo sapiens)
Assay Overview: NVS_GPCR_hM3: NovaScreen (NVS) G Protein-Coupled Receptor Assay for human Muscarinic, M3 Receptor (AID 2283272)
Inconclusive results are not listed. The source made the active and inactive calls. Rule for the calls: active = hit-call score of the fitted dose curve at least 0.9, where 1 is the maximum; inconclusive = response in the unintended direction; inactive = score below 0.9.
Outcomes you can answer with include only these: active, inactive

CCCN(CC)CC1COC2(CCC(C(C)(C)C)CC2)O1 (configuration not stated) ... active
CCSC(=O)N1CCCCCC1 ... active
CCCCC(C#N)(Cn1cncn1)c1ccc(Cl)cc1 (configuration not stated) ... active
Cc1cc(C)nc(Nc2ccccc2)n1 ... active
CC(C)(C)C(=O)C(Oc1ccc(Cl)cc1)n1cncn1 (configuration not stated) ... inactive
Cn1c(-c2ccccc2)cc(-c2ccccc2)[n+]1C ... active

Next item in the queue.
Hello, I am checking results. What call was entered for CCC(C)n1c(=O)[nH]c(C)c(Br)c1=O (configuration not stated) ? inactive
